Target: T1, UBXD1-PUB (150–264) V203A (UniProt Q9BZV1 150-264, V203A)
T1 construct: UBXD1 PUB domain construct, residues 150-264, point mutant; source: E. coli Rosetta2, purified (Ni-NTA, thrombin cleavage of the tag, SEC); not shown: His6, N-terminal, cleaved
T1 sequence (looked up): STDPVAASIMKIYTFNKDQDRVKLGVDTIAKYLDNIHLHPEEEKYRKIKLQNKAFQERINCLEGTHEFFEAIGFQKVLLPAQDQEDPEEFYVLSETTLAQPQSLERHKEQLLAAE
Assay: fluorescence polarisation; fluorescence anisotropy; PUB constructs titrated to 100 nM 5,6-FAM labeled p97-C10 peptide; 50 mM NaKPi pH 6.5, 25 °C; triplicate; one-site quadratic fit
Conditions: both partners purified
No end group written: not given here.
attribute-measured: Kd (µM)

[[record]]
binder = "TEDNDDDLYG (also: 5,6-FAM label, position not given here, source: synthetic peptide, bought: Caslo ApS (Denmark)) [5,6-FAM-labeled p97-C10 peptide]"
test_value = 25.3


All values here come from paper PMC6995525.
